- assayed.system: T1, Anti-PSMA Fab (SEQ ID NOs: 19, 20)
- T1 construct: Biotinylated and captured on neutravidin coated plates in the phage ELISA; also called 006 PSMA Fab
- procedure.summary: phage ELISA; biotinylated PSMA Fab captured on neutravidin plate, clonal phage supernatant, anti-M13 HRP detection
measure: Phage binding ELISA, Anti-PSMA Fab (SEQ ID NOs: 19, 20) signal
Answers are plain numbers.

Use these answered entries as a reference point.
DIRWCIPDWMCTET (Clonal phage of the peptide-180 library, tested as crude supernatant; not shown: pIII of the bacteriophage, to which the peptide is fused) [Phage-2164]; 1.65
VIPWCIPEWMCTAS (Clonal phage of the peptide-180 library, tested as crude supernatant; not shown: pIII of the bacteriophage, to which the peptide is fused) [Phage-2175]; 1.64
GEKWCIPEWMCVHL (Clonal phage of the peptide-180 library, tested as crude supernatant; not shown: pIII of the bacteriophage, to which the peptide is fused) [Phage-2168]; 1.65
MAMMCIPPWMCDTM (Clonal phage of the peptide-180 library, tested as crude supernatant; not shown: pIII of the bacteriophage, to which the peptide is fused) [Phage-2172]; 1.65
VVPWCIPVWMCNSQ (Clonal phage of the peptide-180 library, tested as crude supernatant; not shown: pIII of the bacteriophage, to which the peptide is fused) [Phage-2165]; 1.65

Dear colleague, could you please provide Phage binding ELISA, Anti-PSMA Fab (SEQ ID NOs: 19, 20) signal for the binders listed below?
1. GSHWCIPPWMCQMS (Clonal phage of the peptide-180 library, tested as crude supernatant; not shown: pIII of the bacteriophage, to which the peptide is fused) [Phage-2163]
2. DENWCKPLWMCKGF (Clonal phage of the peptide-180 library, tested as crude supernatant; not shown: pIII of the bacteriophage, to which the peptide is fused) [Phage-2170]
3. GDRLCVPEWMCEML (Clonal phage of the peptide-180 library, tested as crude supernatant; not shown: pIII of the bacteriophage, to which the peptide is fused) [Phage-2171]

OUTPUT:
1. 1.66
2. 1.65
3. 1.65
